Items are presented alongside their recorded logP.
Method summary: Octanol-water partition coefficient, log KOW of the compound
Assay type: physicochemical
Experimental setup: read-out: LogP
Readout: logP

| Molecule | Numeric result |
| --- | --- |
| ClC1(Cl)C2(Cl)C3(Cl)C4(Cl)C(Cl)(Cl)C5(Cl)C3(Cl)C1(Cl)C5(Cl)C24Cl (stereo not drawn) [MIREX] | 8.1 |
| Clc1cc(Cl)cc(Cl)c1 [1,3,5-TRICHLOROBENZENE] | 3.5 |
| ClC1=C(Cl)[C@]2(Cl)[C@@H]3[C@@H]4C[C@@H]([C@H]5O[C@@H]45)[C@@H]3[C@@]1(Cl)C2(Cl)Cl [DIELDRIN] | 5.4 |
| Clc1cc(Cl)c(-c2cc(Cl)c(Cl)c(Cl)c2Cl)cc1Cl | 7.5 |
| Brc1ccc(Oc2cc(Br)c(Br)cc2Br)c(Br)c1 | 6.8 |
| OC(c1ccc(Cl)cc1)(c1ccc(Cl)cc1)C(Cl)(Cl)Cl [DICOFOL] | 3.5 |
| Cc1c([N+](=O)[O-])c(C)c([N+](=O)[O-])c(C(C)(C)C)c1[N+](=O)[O-] | 4.1 |
| C=Cc1ccccc1 [STYRENE] | 2.5 |
| Brc1ccc(Oc2ccc(Br)cc2Br)c(Br)c1 | 6 |
| ClC(Cl)=C(Cl)C(Cl)=C(Cl)Cl [HEXACHLOROBUTADIENE] | 4.5 |
| Clc1cc(Cl)c(Cl)c(Cl)c1Cl [PENTACHLOROBENZENE] | 5 |
| Clc1cc(Cl)c(-c2cc(Cl)c(Cl)cc2Cl)cc1Cl [2,2',4,4',5,5'-HEXACHLOROBIPHENYL] | 7.5 |
| O=S(=O)(c1ccc(Cl)cc1)c1cc(Cl)c(Cl)cc1Cl [TETRADIFON] | 4.6 |
| Clc1cc(Cl)c(Cl)cc1Cl | 4.7 |
| O=S1OC[C@@H]2[C@H](CO1)[C@@]1(Cl)C(Cl)=C(Cl)[C@@]2(Cl)C1(Cl)Cl (stereo partly drawn) | 3.7 |
| Clc1c(Cl)c(Cl)c(Cl)c(Cl)c1Cl [PERCHLOROBENZENE] | 5.5 |
| CCCN(CCC)c1c([N+](=O)[O-])cc(C(F)(F)F)cc1[N+](=O)[O-] [TRIFLURALIN] | 4.4 |
| Cl[C@H]1[C@H](Cl)[C@@H](Cl)[C@H](Cl)[C@@H](Cl)[C@@H]1Cl [BETA-HEXACHLOROCYCLOHEXANE] | 3.8 |

Data provenance: ChEMBL document CHEMBL1143755
